Target: hA3AR (Homo sapiens)
Sequence (P0DMS8 whole entry): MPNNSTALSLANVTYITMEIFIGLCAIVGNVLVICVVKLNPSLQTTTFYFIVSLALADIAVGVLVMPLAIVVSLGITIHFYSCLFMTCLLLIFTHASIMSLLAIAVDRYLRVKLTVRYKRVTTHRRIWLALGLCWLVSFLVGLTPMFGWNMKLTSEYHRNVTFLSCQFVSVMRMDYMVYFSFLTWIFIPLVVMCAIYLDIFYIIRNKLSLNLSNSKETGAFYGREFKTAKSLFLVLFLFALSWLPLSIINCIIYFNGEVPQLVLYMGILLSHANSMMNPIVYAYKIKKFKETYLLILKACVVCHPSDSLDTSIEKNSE
Experiment: Competitive binding assay, hA3AR membranes, [125I]AB-MECA
Conditions: read-out: Ki hA3AR; [125I]AB-MECA 0.4 nM; DMSO ≤1%; n = 3
PROPERTY_MEASURED: pKi
Notebook: values listed as pKi are -log10 of the concentration (mol/L).

## Input Fill in the recorded pKi for this molecule, with hA3AR (Homo sapiens) as test system: `CCSC(=O)c1c(CC)nc(-c2ccccc2)c(C(=O)OCCF)c1CC`
## Output 8.22

---

Target: hA1AR (Homo sapiens, UniProt P30542)
Sequence (P30542 whole entry): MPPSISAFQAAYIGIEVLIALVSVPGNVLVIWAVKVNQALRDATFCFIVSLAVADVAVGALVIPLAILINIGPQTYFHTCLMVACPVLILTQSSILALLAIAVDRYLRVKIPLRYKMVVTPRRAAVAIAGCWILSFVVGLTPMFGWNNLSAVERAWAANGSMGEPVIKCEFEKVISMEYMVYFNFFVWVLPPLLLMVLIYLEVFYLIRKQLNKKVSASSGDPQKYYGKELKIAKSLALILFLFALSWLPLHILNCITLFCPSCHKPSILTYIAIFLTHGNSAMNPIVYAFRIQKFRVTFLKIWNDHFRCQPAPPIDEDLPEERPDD
Experiment: Competitive binding assay, hA1AR membranes, [3H]DPCPX
Settings: read-out: Ki hA1AR; [3H]DPCPX […]; DMSO up to 10%; n = 3–5 in triplicate
PROPERTY_MEASURED: Ki (µM)
Please state the figure in µM; there is no need to write the unit.

| GIVEN_SMILES | PROPERTY_MEASURED | OBSERVED_MEASUREMENT |
| --- | --- | --- |
| CCSC(=O)c1c(CC)nc(-c2ccccc2)c(C(=O)OCCF)c1CC | Ki | 4.03 |

## Input Fill in the recorded Ki for this compound, with hA1AR (Homo sapiens, UniProt P30542) as test system: `CCSC(=O)c1c(CC)nc(-c2ccccc2)c(C(=O)O)c1CC`
## Output 5.46
